FYI, the data here is from patent EP3020822A1.

STUDY TARGET: T1, human TLR3 extracellular domain (ECD) (human, UniProt O15455 24-703)
T1 construct: amino acids 1-703 of human TLR3; the structural model covers residues 30-687; also called huTLR3 ECD; TLR3 ECD
TEST DETAILS: ELISA, huTLR3 ECD coated, mAb titrated, anti-human IgG-peroxidase
Items are presented alongside their recorded EC50.
Please respond with the number in µg/mL and leave the unit unwritten.

binder="mAb 13 (antibody, human IgG4 S228P, V domains shown, human IgG4 with S229P; also called candidate 13; Fab 13) VH: QVELVQSGAEVKKPGESLKISCKGSGYSFTNYWVGWVRQMPGKGLEWMGFIDPSDSYTNYAPSFQGQVTISADKSISTAYLQWSSLKASDTAMYYCARELYQGYMDTFDSWGQGTLVTVSS VL: DIQMTQSPSSLSASVGDRVTITCRASQSIGLYLAWYQQKPGKAPKLLIYAASSLQSGVPSRFSGSGSGTDFTLTISSLQPEDFATYYCQQGESILSTFGQGTKVEIK" assay_endpoint=EC50 reported_measurement=0.0235
binder="mAb 17 (antibody, human IgG4 S228P, V domains shown, human IgG4 with S229P; also called candidate 17; Fab 17) VH: QVELQQSGPGLVKPSQTLSLTCAISGDSVSTRSAAWGWIRQSPGRGLEWLGRIYMRSKWYNDYAVSVKSRITINPDTSKNQFSLQLNSVTPEDTAVYYCARHTYPYLSFDVWGQGTLVTVSS VL: DIELTQPPSVSVAPGQTARISCSGDALGGYFVSWYQQKPGQAPVLVIYDDDNRPSGIPERFSGSNSGNTATLTISGTQAEDEADYYCASYDGDEFTVFGGGTKLTVL" assay_endpoint=EC50 reported_measurement=0.0138

Report EC50 for mAb 19 (antibody, human IgG4 S228P, V domains shown, human IgG4 with S229P; also called candidate 19; Fab 19) VH: QVELVQSGAEVKKPGESLKISCKGSGYSFTNYWVGWVRQMPGKGLEWMGFIDPSDSYTNYAPSFQGQVTISADKSISTAYLQWSSLKASDTAMYYCARELYQGYMDTFDSWGQGTLVTVSS VL: DIQMTQSPSSLSASVGDRVTITCRASQSIGLYLAWYQQKPGKAPKLLIYAASSLQSGVPSRFSGSGSGTDFTLTISSLQPEDFATYYCQQYGSVSITFGQGTKVEIK please. 0.0665
